Target: Dual specificity mitogen-activated protein kinase kinase 7 (Homo sapiens) (UniProt O14733)
Sequence (whole entry): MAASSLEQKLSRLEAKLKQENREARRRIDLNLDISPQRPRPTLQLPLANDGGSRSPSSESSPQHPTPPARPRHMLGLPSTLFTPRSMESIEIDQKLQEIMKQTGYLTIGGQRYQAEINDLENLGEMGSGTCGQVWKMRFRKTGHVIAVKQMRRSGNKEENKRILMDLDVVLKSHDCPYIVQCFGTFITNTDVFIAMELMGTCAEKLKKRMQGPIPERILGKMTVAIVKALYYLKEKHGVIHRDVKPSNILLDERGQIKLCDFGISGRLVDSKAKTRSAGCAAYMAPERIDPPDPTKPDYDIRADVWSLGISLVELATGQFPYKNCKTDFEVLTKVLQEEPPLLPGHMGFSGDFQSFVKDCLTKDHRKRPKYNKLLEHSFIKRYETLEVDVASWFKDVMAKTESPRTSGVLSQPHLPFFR
Experiment: Binding affinity to MKK7 (unknown origin) assessed as percent of control at 100 nM by Kinomescan method relative to control
reportedMetric: Activity

Look over these answered cases.
| compound | reportedMetric | observedMeasurement |
| --- | --- | --- |
| CCCS(=O)(=O)Nc1ccc(F)c(C(=O)c2ccc3[nH]c4ncc(-c5ccc(C(=O)O)cc5)cc4c3c2)c1F | Activity | 100% |
| CCCS(=O)(=O)Nc1ccc(F)c(C(=O)c2ccc3[nH]c4ncc(-c5ccc(C(N)=O)cc5)cc4c3c2)c1F | Activity | 98% |
| CCCS(=O)(=O)Nc1ccc(F)c(C(=O)c2n[nH]c3ncc(-c4ccc(S(=O)(=O)NCC(O)CO)cc4)cc23)c1F (configuration not stated) | Activity | 100% |
| CCCS(=O)(=O)Nc1ccc(F)c(C(=O)c2n[nH]c3ncc(-c4ccc(C(=O)NCC(O)CO)cc4)cc23)c1F (configuration not stated) | Activity | 97% |
| CCCS(=O)(=O)Nc1ccc(F)c(C(=O)c2ccc3[nH]c4ncc(-c5ccccc5F)cc4c3c2)c1F | Activity | 100% |
| CCCS(=O)(=O)Nc1ccc(F)c(C(=O)c2ccc3[nH]c4ncc(-c5ccc(Cl)cc5)cc4c3c2)c1F | Activity | 100% |
| CCCS(=O)(=O)Nc1ccc(F)c(C(=O)c2c[nH]c3ncc(-c4ccc(S(N)(=O)=O)cc4)cc23)c1F | Activity | 78% |
| CCCS(=O)(=O)Nc1ccc(F)c(C(=O)c2ccc3[nH]c4ncc(-c5ccc(OCC(O)CO)cc5)cc4c3c2)c1F (configuration not stated) | Activity | 96% |

For CCCS(=O)(=O)Nc1ccc(F)c(C(=O)c2ccc3[nH]c4ncc(-c5ccncc5)cc4c3c2)c1F , write its Activity.
91%

For CCCS(=O)(=O)Nc1ccc(F)c(C(=O)c2ccc3[nH]c4ncc(-c5ccc(C(=O)NCC(O)CO)cc5)cc4c3c2)c1F (configuration not stated) , write its Activity.
100%

For CCCS(=O)(=O)Nc1ccc(F)c(C(=O)c2ccc3[nH]c4ncc(-c5ccc(-c6nnn[nH]6)cc5)cc4c3c2)c1F , write its Activity.
100%

For CCCS(=O)(=O)Nc1ccc(F)c(C(=O)c2c[nH]c3ncc(-c4ccc(OCC(O)CO)cc4)cc23)c1F (configuration not stated) , write its Activity.
99%

For CCCS(=O)(=O)Nc1ccc(F)c(C(=O)c2ccc3[nH]c4ncc(-c5ccc(S(N)(=O)=O)cc5)cc4c3c2)c1F , write its Activity.
100%

For CCCS(=O)(=O)Nc1ccc(F)c(C(=O)c2c[nH]c3ncc(-c4cccnc4)cc23)c1F , write its Activity.
100%

For CCCS(=O)(=O)Nc1ccc(F)c(C(=O)c2c[nH]c3ncc(-c4ccc(O)cc4)cc23)c1F , write its Activity.
100%

For CCCS(=O)(=O)Nc1ccc(F)c(C(=O)c2ccc3[nH]c4ncc(-c5ccc(S(=O)(=O)NCC(O)CO)cc5)cc4c3c2)c1F (configuration not stated) , write its Activity.
97%

For CCCS(=O)(=O)Nc1ccc(F)c(C(=O)c2ccc3[nH]c4ncc(-c5ccc(O)cc5)cc4c3c2)c1F , write its Activity.
100%
